pEC50 listing for selected binders.
Biological target: T1, human CD39 on the cell surface (human, UniProt P49961 1-510)
T1 construct: whole, on cells; also called hCD39; NTPDase 1
T1 sequence (looked up): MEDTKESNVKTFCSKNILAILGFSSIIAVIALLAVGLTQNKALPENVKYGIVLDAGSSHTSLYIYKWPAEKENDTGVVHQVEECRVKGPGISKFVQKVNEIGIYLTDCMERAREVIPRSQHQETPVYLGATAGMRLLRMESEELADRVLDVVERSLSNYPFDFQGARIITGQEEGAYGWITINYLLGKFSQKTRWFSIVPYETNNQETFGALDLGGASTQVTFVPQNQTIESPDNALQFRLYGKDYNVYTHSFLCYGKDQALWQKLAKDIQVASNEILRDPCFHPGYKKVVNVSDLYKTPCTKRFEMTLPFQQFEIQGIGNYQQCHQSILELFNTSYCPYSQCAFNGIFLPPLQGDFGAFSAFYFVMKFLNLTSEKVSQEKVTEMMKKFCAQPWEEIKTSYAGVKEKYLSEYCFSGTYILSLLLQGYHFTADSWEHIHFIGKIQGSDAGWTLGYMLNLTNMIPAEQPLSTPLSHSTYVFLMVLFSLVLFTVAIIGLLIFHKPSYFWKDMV
Assay: FACS on SK-MEL-28 cells (natural human CD39)
On this scale, pEC50 is minus log10 of a concentration expressed in M (mol/L).

Before answering, review these 6 worked examples.
# Binder, pEC50
records = [
    ("humanized antibody F03-11 (antibody, human IgG4 S228P, kappa, V domains shown, Human IgG4 (S228P) and human kappa constant regions) VH: QVQLVQSGAEVKKPGASVKVSCKASGYTFTNYWMYWVRQAPGQGLEWMGRIAPSSGATKYNEKFKNRVTMTRDTSISTAYMELSRLRSDDTAVYYCARSGIYYDYDWFFDVWGQGTTVTVSS VL: DIQMTQSPSSLSASVGDRVTITCKASQDINKYIGWYQQKPGKAPKLLIHYTSTLQPGVPSRFSGSGSGRDYTFTISSLQPEDIATYYCLQYHALLFTFGQGTKLEIKR", 9.03),
    ("humanized antibody F03-7 (antibody, human IgG4 S228P, kappa, V domains shown, Human IgG4 (S228P) and human kappa constant regions) VH: QVQLVQSGAEVKKPGASVKVSCKASGYTFTNYWMYWVRQAPGQGLEWMGRIAPSSGATKYNEKFKNRVTLTVDTSISTAYMELSRLRSDDTAVYYCARSGIYYDYDWFFDVWGQGTTVTVSS VL: DIQMTQSPSSLSASVGDRVTITCKASQDINKYIGWYQQKPGKAPKLLIHYTSTLQPGVPSRFSGSGSGTDFTFTISSLQPEDIATYYCLQYHALLFTFGQGTKLEIKR", 9.05),
    ("chimeric antibody F03 (antibody, human IgG4 S228P, kappa, V domains shown, Variable regions of murine mF03 on human IgG4 (S228P) and human kappa constant regions; expressed in CHO-S cells) VH: QVQLQQPGAELVKPGASVKLSCKTSGYTFTNYWMYWVKHRPGRGLEWIGRIAPSSGATKYNEKFKNKATLTVDKPSSTAYMQLSSLTSEDSAVYYCARSGIYYDYDWFFDVSGTGTTVTVSS VL: DIQMTQSPSSLSASLGGKVTITCKASQDINKYIGWYQHAPGKGPRLLIHYTSTLQPGIPSRFSGSGSGRDYSLSISNLEPEDIATYYCLQYHALLFTFGSGTKLELKR", 8.68),
    ("humanized antibody F03-13 (antibody, human IgG4 S228P, kappa, V domains shown, Human IgG4 (S228P) and human kappa constant regions) VH: QVQLVQSGAEVKKPGASVKVSCKASGYTFTNYWMYWVRQAPGQGLEWIGRIAPSSGATKYNEKFKNRATLTVDTSISTAYMELSRLRSDDTAVYYCARSGIYYDYDWFFDVWGQGTTVTVSS VL: DIQMTQSPSSLSASVGDRVTITCKASQDINKYIGWYQQKPGKAPKLLIHYTSTLQPGVPSRFSGSGSGRDYTFTISSLQPEDIATYYCLQYHALLFTFGQGTKLEIKR", 9.00),
    ("humanized antibody F03-12 (antibody, human IgG4 S228P, kappa, V domains shown, Human IgG4 (S228P) and human kappa constant regions) VH: QVQLVQSGAEVKKPGASVKVSCKASGYTFTNYWMYWVRQAPGQGLEWMGRIAPSSGATKYNEKFKNRVTLTVDTSISTAYMELSRLRSDDTAVYYCARSGIYYDYDWFFDVWGQGTTVTVSS VL: DIQMTQSPSSLSASVGDRVTITCKASQDINKYIGWYQQKPGKAPKLLIHYTSTLQPGVPSRFSGSGSGRDYTFTISSLQPEDIATYYCLQYHALLFTFGQGTKLEIKR", 8.95),
    ("humanized antibody F03-6 (antibody, human IgG4 S228P, kappa, V domains shown, Human IgG4 (S228P) heavy chain constant region and human kappa constant region) VH: QVQLVQSGAEVKKPGASVKVSCKASGYTFTNYWMYWVRQAPGQGLEWMGRIAPSSGATKYNEKFKNRVTMTRDTSISTAYMELSRLRSDDTAVYYCARSGIYYDYDWFFDVWGQGTTVTVSS VL: DIQMTQSPSSLSASVGDRVTITCKASQDINKYIGWYQQKPGKAPKLLIHYTSTLQPGVPSRFSGSGSGTDFTFTISSLQPEDIATYYCLQYHALLFTFGQGTKLEIKR", 8.90),
]

Enquiry: Consider the binder shown here: humanized antibody F03-8 (antibody, human IgG4 S228P, kappa, V domains shown, Human IgG4 (S228P) and human kappa constant regions) VH: QVQLVQSGAEVKKPGASVKVSCKASGYTFTNYWMYWVRQAPGQGLEWIGRIAPSSGATKYNEKFKNRATLTVDTSISTAYMELSRLRSDDTAVYYCARSGIYYDYDWFFDVWGQGTTVTVSS VL: DIQMTQSPSSLSASVGDRVTITCKASQDINKYIGWYQQKPGKAPKLLIHYTSTLQPGVPSRFSGSGSGTDFTFTISSLQPEDIATYYCLQYHALLFTFGQGTKLEIKR What is its recorded pEC50?
Return: 9.00
